- System: TK-10 renal
- Run Description: NCI tumour cell line growth inhibition, 48 h
Endpoint Name: TGI

Consider the reported TGI for these compounds:
| Compound | Observed |
| --- | --- |
| Oc1ccc2ccccc2c1N=Nc1ccccn1 | > 86.2 µM |
| COc1ccc(C2SCC(=O)N2NC(=O)C(C)Oc2ccccc2Cl)cc1 (stereo unspecified) | > 100 µM |
| O=C(O)CCSC(=O)Nc1cccc([N+](=O)[O-])c1 | > 100 µM |
| COc1cc2cc(C(=O)N3CC(CCl)c4c3cc(N(C)C)c3ccccc43)[nH]c2c(OC)c1OC (stereo unspecified) | > 100 µM |
| Cc1ccc(/C=N/NC2=NCCN2)s1 | > 100 µM |

I looked up "COc1cc([C@@H]2c3cc4c(cc3[C@H](OC(C)=O)[C@H]3COC(=O)[C@H]23)OCO4)cc(OC)c1OC" and its TGI for TK-10 renal was > 100 µM

I looked up "c1ccc2c(c1)nnn2CNc1ccc(N2CCOCC2)cc1" and its TGI for TK-10 renal was > 100 µM

###

- Tested on: MDA-MB-231 breast
- Run Description: NCI tumour cell line growth inhibition, 48 h
Endpoint Name: TGI

Consider the reported TGI for these compounds:
| Compound | Observed |
| --- | --- |
| CC(=O)N1N=C(N)CC1=O | > 100 µM |
| N/C(=N\c1nc2ccccc2s1)NC(=O)Nc1ccccc1Cl | 8.21 µM |
| O=C(CCc1ccccc1CO)NCCc1ccccc1 | > 100 µM |
| O=S(=O)(O)c1ccc2c(N=Nc3ccccc3Cl)c(O)ccc2c1 | > 100 µM |
| COc1cccc(-c2nc(-c3ccc(NC(=O)c4ccccc4)cc3)[nH]c2-c2ccnc(Br)c2)c1 | > 100 µM |
| N#Cc1ccc(-c2nc3ccc(Cl)cc3[nH]2)cc1 | > 100 µM |
| O=C(CN1CCOCC1)CC(O)(C(F)(F)F)C(F)(F)F | > 100 µM |
| CCn1cc(C(=O)N/N=C/c2cccc(F)c2)c(=O)c2cc(F)c(N3CCNC(C)C3)c(F)c21 (stereo unspecified) | 3.14 µM |

TGI for CCCC#CC(O)(C(=O)OC1CCN(C)CC1)C1CCCCC1 (stereo unspecified) is > 100 µM

TGI for "CCOP(=O)(OCC)/C(C#N)=C/c1cccn1N(C)C" is > 100 µM

TGI for "CC(C)(C)OC(=O)Nc1cc(-c2ccccc2)co1" is > 100 µM

TGI for "COC(=O)c1ccc(CCc2cc(O)c(Br)cc2O)cc1" is 29 µM

TGI for "O=C1c2cccc3cc([N+](=O)[O-])cc(c23)C(=O)N1CCN1CCCC1" is 11.1 µM

TGI for "COc1cc(/C=C2\CN(S(=O)(=O)c3ccc(C)cc3)C/C(=C\c3cc(CN4CCCCC4)c(O)c(OC)c3)C2=O)cc(CN2CCCCC2)c1O" is 2.77 µM

TGI for "CC(=O)c1c(-c2ccccc2)c(-c2ccc(OCCN(C)C)cc2)n2ccccc12" is 31 µM

TGI for CC(C)(C)OC(=O)NC(Cc1ccc(OCc2ccccc2)cn1)C(=O)N1CCSCC1 (stereo unspecified) is > 100 µM

###

- Tested on: SNB-75 CNS
- Run Description: NCI tumour cell line growth inhibition, 48 h
# TGI annotations
Please respond with the number in µM and leave the unit unwritten.

Consider the reported TGI for these compounds:
| Compound | Unit | TGI |
| --- | --- | --- |
| CSc1ccc(/C=C2\N=C(c3ccccc3)N(c3nc4c(Cl)cc(Cl)cc4s3)C2=O)cc1 | µM | 62 |
| O=C(c1cc2c(C(F)(F)F)onc2c2ccccc12)C(F)(F)F | µM | 15.4 |
| O=C1c2cccc3cc([N+](=O)[O-])cc(c23)C(=O)N1CCN1CCCC1 | µM | 2.27 |

Shift focus to the following entry.
I looked up COc1cc2cc(C(=O)N3CC(CCl)c4c3cc(N(C)C)c3ccccc43)[nH]c2c(OC)c1OC (stereo not given) and its TGI for SNB-75 CNS was 0.0252

###

- Tested on: KM12 colon
- Run Description: NCI tumour cell line growth inhibition, 48 h
Endpoint Name: TGI

Consider the reported TGI for these compounds:
| Compound | System | TGI |
| --- | --- | --- |
| O=C1C(Cl)=C(Nc2cccc(O)c2)C(=O)N1c1cccc(Cl)c1 | KM12 colon | > 100 µM |
| Cc1cccc2c1NC(=O)[C@@]21[C@H](C(=O)c2ccccc2)[C@]2(C(=O)Nc3ccccc32)[C@H]2CCCN21 | KM12 colon | > 100 µM |
| COc1cc([C@@H]2c3cc4c(cc3[C@@H](NCc3ccc(C#N)cc3)C3COC(=O)[C@@H]32)OCO4)cc(OC)c1O (some centres undefined) | KM12 colon | 3.78 µM |

Shift focus to the following entry.
TGI for O=c1c(O)c(-c2cc(O)c(O)cc2O)oc2cc(O)c(C3OC(CO)C(O)C(O)C3O)c(O)c12 (centres undefined) is > 100 µM

###

# TGI annotations
- Test system: COLO 205 colon
- Run Description: NCI tumour cell line growth inhibition, 48 h

| Compound | System | TGI |
| --- | --- | --- |
| CCOC(=O)/C=C(\N=P(c1ccccc1)(c1ccccc1)c1ccccc1)C(F)(F)C(F)(F)C(F)(F)C(F)(F)C(F)(F)F | COLO 205 colon | > 100 µM |
| O=c1[nH]c(Nc2cccc(Br)c2)nc2nc[nH]c12 | COLO 205 colon | > 100 µM |
| CC1C(c2ccc3c(c2)OCO3)c2cc3c(cc2OC1N1CCCCC1)OCO3 (stereo unspecified) | COLO 205 colon | > 100 µM |

TGI for O=C1CC2C(=O)C1C(C(=O)O)C2C(=O)O (stereo unspecified) is > 100 µM

TGI for "CC(C)(C)OC(=O)Nc1cc(-c2ccccc2)co1" is > 100 µM

TGI for "O=C(/C=C\Nc1ccccc1O)C(Cl)(Cl)Cl" is > 100 µM

###

- Tested on: SW-620 colon
- Run Description: NCI tumour cell line growth inhibition, 48 h
Endpoint Name: TGI

Consider the reported TGI for these molecules:
| Molecule | TGI |
| --- | --- |
| O=C1OC(C2OC(=O)c3cc(O)c(O)c(O)c3-c3c(O)c(O)c4oc(=O)c5c(c(O)c(O)c6oc(=O)c3c4c65)-c3c(cc(O)c(O)c3O)C(=O)OCC2O)C2OC(=O)c3c(c(O)c(O)c(O)c3[C@H]2O)-c2c1cc(O)c(O)c2O (stereo not given in full) | 48.9 µM |
| CC1(C)CCC2(C(=O)O)CC[C@]3(C)C(=CCC4C5(C)CC[C@H](OC6OC(C(=O)O)C(O)C(OC7OC(CO)C(O)C(O)C7O)C6OC6OC(CO)C(O)C(O)C6O)C(C)(C)C5CCC43C)C2C1 (stereo not given in full) | > 100 µM |
| CCC1CCCCN1C(=S)N/N=C(\C)c1ccccn1 (stereo not given) | 2.76 µM |

TGI for "CC(=O)NNC(=S)/N=C/c1c(O)cc(C)oc1=O" is > 100 µM

TGI for COc1ccc(C2SCC(=O)N2NC(=O)C(C)Oc2ccccc2Cl)cc1 (stereo not given) is > 100 µM

###

- System: UACC-257 melanoma
- Run Description: NCI tumour cell line growth inhibition, 48 h
# TGI annotations
Please respond with the number in µM and leave the unit unwritten.

| Molecule | Unit | Observed |
| --- | --- | --- |
| CC(=O)NC1C(OCc2ccccc2)OC(COC(=O)CCCCCNc2ccc([N+](=O)[O-])c3[nH]c4ccc(O)cc4c(=O)c23)C(O)C1OC(C)C(=O)N[C@@H](C)C(=O)N[C@H](CCC(=O)OCc1ccccc1)C(N)=O (stereo not given in full) | µM | 6.38 |
| NCCCn1c2c(c3cc4c(cc3c1=O)OCO4)C(=O)c1ccccc1-2 | µM | 4.7 |
| Cc1ccc2c(N/N=C\c3ccco3)cc(C)nc2n1 | µM | 8.72 |
| CCOC(=O)c1c(C)[nH]c(/C=C2\N=C(c3ccc[nH]3)C=C2OC)c1C | µM | 1.46 |
| COC(OC)(c1ccccc1)C(I)I | µM | 8.73 |
| NC(=O)c1cc(Cl)ccc1NC(=O)c1ccccc1-c1ccccc1 | µM | 73.2 |
| O=C(NC1CCN(Cc2ccccc2)CC1)c1cc(C(=O)NC2CCN(Cc3ccccc3)CC2)cc(C(=O)NC2CCN(Cc3ccccc3)CC2)c1 | µM | 16.5 |

Shift focus to the following entry.
TGI for "CN(C1=NS(=O)(=O)N=C(N(C)c2ccccc2)O1)c1ccccc1" is 57.4

###

# TGI annotations
- System: MDA-N
- Run Description: NCI tumour cell line growth inhibition, 48 h
Please respond with the number in µM and leave the unit unwritten.

| Compound | Endpoint Name | Observed |
| --- | --- | --- |
| COc1ccc(-n2c3c(c4c(CN(C)C)c(O)ccc42)C(=O)c2ccccc2C3=O)cc1 | TGI | 21.2 |

TGI for "CC(=N/NC(=S)N1CCCCC1)/C(C)=N\NC(=S)N1CCCCC1" is 6.44

TGI for CC1C(c2ccc3c(c2)OCO3)c2cc3c(cc2OC1N1CCCCC1)OCO3 (centres undefined) is 48.6

Recorded values, source PubChem BioAssay (NCI).
